- STUDY_SYSTEM: recombinant SARS-CoV-2 Main protease (Mpro) (Severe acute respiratory syndrome coronavirus 2 (2019-nCoV) (SARS-CoV-2), UniProt P0DTD1)
- ASSAY_PROCEDURE: Cov Mpro Biochemical IC50 Assay
- ASSAY_CONTEXT: recombinant SARS-CoV-2 Mpro, fluorogenic peptide substrate; read-out: MPro IC50
Class (by IC50) -- low (below 0.03 µM), mid (0.03 µM to below 0.4 µM), high (0.4 µM or more)

Some entries whose results are on file:
# COMPOUND, CATEGORY
measured = [
    ("CS(=O)(=O)c1cccc(-c2cccc(Cl)c2-c2ccc3c(=O)n(-c4cncc5ccccc45)c(=O)[nH]c3c2)c1", "low"),
    ("COc1ccc(Cl)c(-c2cc3[nH]c(=O)n(-c4cncc5ccc(N6CCS(=O)(=O)CC6)cc45)c(=O)c3s2)c1", "low"),
    ("CC(C)(C)OC(=O)N1CCn2ncc(-c3cccc(Cl)c3-c3ccc4c(=O)n(-c5cncc6ccccc56)c(=O)[nH]c4c3)c2C1", "mid"),
    ("Cc1c(-c2ccccc2Cl)sc2c(=O)n(-c3cncc4ccccc34)c(=O)[nH]c12", "high"),
    ("COc1ccc(Cl)c(-c2ccc3c(=O)n(-c4cncc(C5CC5)c4)c(=O)[nH]c3c2)c1", "mid"),
    ("Cc1nnc(-c2cccc(-c3ccc4c(=O)n(-c5cncc6ccccc56)c(=O)[nH]c4c3)c2)o1", "high"),
    ("O=c1[nH]c2cc(-c3c(Cl)cccc3Cl)sc2c(=O)n1-c1cncc(C2CC2)c1", "mid"),
    ("O=c1[nH]c2cc(-c3c(Cl)cccc3-c3ccc4c(c3)CCO4)ccc2c(=O)n1-c1cncc2ccccc12", "mid"),
    ("O=c1[nH]c2cc(-c3ccccc3C(F)(F)F)ccc2c(=O)n1-c1cncc2ccccc12", "high"),
    ("Cn1ccc(-c2cccc(Cl)c2-c2ccc3c(=O)n(-c4cncc5ccccc45)c(=O)[nH]c3c2)n1", "mid"),
]

// query Any idea which band "Cn1cnc(COc2ccc(Cl)c(-c3ccc4c(=O)n(-c5cncc6ccccc56)c(=O)[nH]c4c3)c2)n1" is in?
// result high

// query Could you tell me which band "O=c1[nH]c2cc(-c3ccccc3Cl)ccc2c(=O)n1-c1cnccc1C(F)(F)F" belongs to?
// result high

// query Which class does "COc1ccc(OC)c(-c2ccc3c(=O)n(-c4cncc5ccccc45)c(=O)[nH]c3c2)c1" fall in?
// result high

// query Which category does the recorded IC50 put "O=c1[nH]c2cc(-c3c(Cl)cccc3-c3ccn4ncnc4c3)ccc2c(=O)n1-c1cncc2ccccc12" in?
// result low

// query Class for "Cc1cc(-c2cccc(Cl)c2-c2ccc3c(=O)n(-c4cncc5ccccc45)c(=O)[nH]c3c2)cc(C#N)n1" ?
// result low

// query Lab note: sort "O=c1[nH]c2cc(-c3cc4c(cc3Cl)OCO4)sc2c(=O)n1-c1cncc2ccccc12" into the matching IC50 band.
// result high

// query Pick a category. Item: "COc1cc(-c2cc3[nH]c(=O)n(-c4cncc5ccccc45)c(=O)c3s2)c(Cl)cc1Cl"
// result low

// query Categorize the following entry: "Cc1ccc(-c2cc3[nH]c(=O)n(-c4cncc5ccccc45)c(=O)c3s2)c(Cl)c1"
// result low

// query Bin? "COc1ccc(C#N)c(-c2cc3[nH]c(=O)n(-c4cncc(C)c4OCC(F)(F)F)c(=O)c3s2)c1"
// result low

// query Into which category would you place "Cc1ccccc1-c1ccc2c(=O)n(-c3cncc4ccccc34)c(=O)[nH]c2c1" ?
// result mid

// query Category of "O=c1[nH]c2cc(-c3ccccc3Cl)sc2c(=O)n1-c1cncc2ccc(N3CC(F)(F)OC(F)(F)C3)cc12" :
// result mid

// query Assign a category based on measured IC50 for "O=c1[nH]c2cc(-c3ccccc3Cl)ncc2c(=O)n1-c1cncc2ccccc12" and give only the class name.
// result high

// query Given "O=c1[nH]c2cc(-c3ccccc3Cl)sc2c(=O)n1-c1cncc2ncccc12" , name the class its IC50 places it in.
// result mid

// query Returns: class label. Input: "O=c1[nH]c2cc(-c3ccccc3Cl)sc2c(=O)n1-c1cnnc2ccccc12"
// result mid

// query Which category fits this record: "Cn1cc(-c2cccc(Cl)c2-c2ccc3c(=O)n(-c4cncc5ccccc45)c(=O)[nH]c3c2)c(C(F)(F)F)n1"
// result low

// query Class label required: O=c1[nH]c2cc(-c3ccccc3Cl)sc2c(=O)n1-c1cncc2ccccc12 (single isomer, unassigned) [Example 150]
// result mid

* * *

pIC50 values, listed per item
- STUDY_SYSTEM: recombinant SARS-CoV-2 Main protease (Mpro) (Severe acute respiratory syndrome coronavirus 2 (2019-nCoV) (SARS-CoV-2), UniProt P0DTD1)
- ASSAY_PROCEDURE: Cov Mpro Biochemical IC50 Assay
- ASSAY_CONTEXT: recombinant SARS-CoV-2 Mpro 7.5 nM, fluorogenic peptide substrate 40 μM; read-out: MPro IC50
Please keep in mind that pIC50 is minus log10 of the molar concentration; only the number is needed.

# COMPOUND, pIC50
data = [
    ("COc1cnc(Cl)c(-c2cc3c(s2)c(=O)n(-c2cncc4cnn(C)c24)c(=O)n3CCC#N)c1 [Example 1019]", 8.07),
    ("COc1cc(-c2cc3c(s2)c(=O)n(-c2cncc4nn(C)c(C)c24)c(=O)n3CCC#N)c(C#N)cc1F", 8.07),
    ("COc1cc(-c2cc3[nH]c(=O)n(-c4cncc5ccccc45)c(=O)c3cc2F)c(C#N)cc1F (single isomer, unassigned) [Example 510]", 8.15),
    ("COc1cc(-c2cc3c(s2)c(=O)n(-c2cncc4c(F)cccc24)c(=O)n3CCC#N)c(Cl)cc1F", 8.35),
    ("N#CCCn1c(=O)n(-c2cccnc2)c(=O)c2sc(-c3cc(F)c(F)cc3Cl)cc21", 7.59),
    ("COc1ccc(Cl)c(-c2cc3[nH]c(=O)n(-c4cncc5c4ccn5C)c(=O)c3s2)c1", 8.58),
    ("COc1cc(-c2cc3c(s2)c(=O)n(-c2cnc(F)c(C)c2)c(=O)n3CCC#N)c(C#N)cc1F", 7.76),
    ("COc1cc(-c2cc3c(s2)c(=O)n(-c2cncc4nn(CC(F)(F)F)c(C)c24)c(=O)n3CCC#N)c(Cl)cc1F", 7.61),
]

// query Input "Cc1ccc(-c2cc3[nH]c(=O)n(-c4cncc5cnn(C)c45)c(=O)c3s2)c(C#N)c1" , output reported pIC50.
// result 6.87

// query Kindly indicate its recorded pIC50. Item: "COc1cc(-c2cc3[nH]c(=O)n(-c4cncc5sc(C(N)=O)c(C)c45)c(=O)c3s2)c(Cl)cc1F"
// result 8.50

// query Return pIC50 for the following compound: "COc1cc(-c2cc3[nH]c(=O)n(-c4cncc5sc(C(C)(C)O)c(C)c45)c(=O)c3s2)c(Cl)cc1F"
// result 8.23

// query Read the entry "COc1cc(-c2cc3c(s2)c(=O)n(-c2cncc4cnn(CC(F)F)c24)c(=O)n3CCC#N)c(Cl)cc1F" and write its reported pIC50.
// result 7.88

// query Name the recorded pIC50 of the compound listed here: "COc1cc(Cl)c(-c2cc3c(s2)c(=O)n(-c2cncc4cnn(C)c24)c(=O)n3CCC#N)cc1Cl"
// result 8.16

// query Check the records and state pIC50 for "COc1ccc(Cl)c(-c2ccc3c(=O)n(-c4cncc5ccc(N6CC(OC)C6)cc45)c(=O)[nH]c3c2)c1"
// result 7.37

// query Entry "O=c1[nH]c2cc(-c3cc(Cl)c(F)cc3Cl)sc2c(=O)n1-c1cncc2ccccc12" needs its pIC50 filled in; supply it.
// result 7.64

* * *

// IC50 lookup, one value per entry
- STUDY_SYSTEM: recombinant SARS-CoV-2 Main protease (Mpro) (Severe acute respiratory syndrome coronavirus 2 (2019-nCoV) (SARS-CoV-2))
- ASSAY_PROCEDURE: Cov Mpro Biochemical IC50 Assay
- ASSAY_CONTEXT: recombinant SARS-CoV-2 Mpro, fluorogenic peptide substrate; read-out: MPro IC50
Quick note: give the figure in µM, leave out the unit.

Reference set, count: 6
# COMPOUND_STRING, IC50 / µM
data = [
    ("Cc1nc(COc2cccc(Cl)c2-c2ccc3c(=O)n(-c4cncc5ccccc45)c(=O)[nH]c3c2)co1", 0.172),
    ("O=c1[nH]c2cc(-c3c(Cl)cccc3-c3ccncc3)ccc2c(=O)n1-c1cncc2ccccc12", 0.00977),
    ("O=c1[nH]c2cc(-c3ccccc3OCc3ccccc3)ccc2c(=O)n1-c1cncc2ccccc12", 5.45),
    ("COc1cc(F)ccc1-c1cc2[nH]c(=O)n(-c3cncc4ccccc34)c(=O)c2s1", 0.221),
    ("Cn1cc2ccc(-c3cc4[nH]c(=O)n(-c5cncc6ccccc56)c(=O)c4s3)cc2n1", 13.7),
    ("Cc1nn(C)cc1-c1cc2[nH]c(=O)n(-c3cncc4ccccc34)c(=O)c2s1", 0.129),
]

// query # return recorded IC50 for entry "CC1(N2CCN(c3ccc4cncc(-n5c(=O)[nH]c6cc(-c7ccccc7Cl)sc6c5=O)c4c3)CC2)COC1"
// result 0.00625

// query Please give measured IC50 of the following entry: "O=c1[nH]c2cc(-c3c(Cl)ccc4c3OCO4)ccc2c(=O)n1-c1cncc2ccccc12"
// result 0.159

// query Specify measured IC50 for "O=c1[nH]c2cc(-c3c(Cl)cccc3-c3cnn4c3CCCC4)ccc2c(=O)n1-c1cncc2ccccc12" .
// result 0.00821

// query Specify IC50 for "COc1ccc(C)c(-c2ccc3c(=O)n(-c4cncc5ccccc45)c(=O)[nH]c3c2)c1" and stop.
// result 0.259

// query Read the entry "O=c1[nH]c2cc(-c3c(Cl)cccc3-c3ccc4c(c3)CCS(=O)(=O)N4)ccc2c(=O)n1-c1cncc2ccccc12" and write its reported IC50.
// result 0.0133

// query Please list IC50 recorded for the compound "O=c1[nH]c2cc(-c3c(Cl)cccc3-c3ccc4c(c3)OCCO4)ccc2c(=O)n1-c1cncc2ccccc12"
// result 0.177

// query For the compound "COc1cc(-c2ccc3c(=O)n(-c4cncc5ccccc45)c(=O)[nH]c3c2)c(Cl)cc1C" , report IC50.
// result 1.21

// query Please report IC50 for the following compound: "NC(=O)c1cc(-c2cccc(Cl)c2-c2ccc3c(=O)n(-c4cncc5ccccc45)c(=O)[nH]c3c2)ccc1F"
// result 0.0153

// query Let me know recorded IC50 for "COc1ccc(C#N)c(-c2cc3[nH]c(=O)n(-c4cncc5ccc(C(F)F)cc45)c(=O)c3s2)c1" , thanks.
// result 0.0102

Provenance of the data: patent US20240116946A1
